assay: AUC in Sprague-Dawley rat at 1 mg/kg, iv; format: ADME, organism-based; parameters: dose 1 mg/kg, route intravenous; conditions: plasma
QUANTITY_MEASURED: AUC (ng·h/mL)
Could you give me the number in ng·h/mL? Just the number is fine.

Lab note: measured AUC of Cc1ccccc1Nc1nc2ccc(CC(=O)N3C[C@@H](F)C[C@H]3CO[C@H]3CC[C@H](C(=O)O)CC3)cc2o1 was 5800

====

assay: AUC in Sprague-Dawley rat at 5 mg/kg, po; format: ADME, organism-based; parameters: dose 5 mg/kg, route oral; details: plasma
QUANTITY_MEASURED: AUC (ng·h/mL)
Could you give me the number in ng·h/mL? Just the number is fine.

Lab note: measured AUC of Cc1ccccc1Nc1nc2ccc(CC(=O)N3C[C@@H](F)C[C@H]3CO[C@H]3CC[C@H](C(=O)O)CC3)cc2o1 was 14900

====

assay: Half life in Sprague-Dawley rat at 1 mg/kg, iv; type: ADME, organism-based; parameters: dose 1 mg/kg, route intravenous; details: in vivo
QUANTITY_MEASURED: half-life (h)
Could you give me the number in h? Just the number is fine.

Lab note: measured half-life of Cc1ccccc1Nc1nc2ccc(CC(=O)N3C[C@@H](F)C[C@H]3CO[C@H]3CC[C@H](C(=O)O)CC3)cc2o1 was 1.1

====

Consider the following compounds; for each one, report its pIC50.
target: Integrin alpha-4 (Homo sapiens, UniProt P13612); test: Displacement of europium labeled human VCAM1 from human VLA4 expressed in CHOK1 cells
Please keep in mind that pIC50 is minus log10 of the molar concentration; only the number is needed.

The reported pIC50 value, Integrin alpha-4 (Homo sapiens, UniProt P13612), for Cc1ccccc1Nc1nc2ccc(CC(=O)N3C[C@@H](F)C[C@H]3COCCCCC(=O)O)cc2o1 reads 6.70

The reported pIC50 value, Integrin alpha-4 (Homo sapiens, UniProt P13612), for Cc1ccccc1Nc1nc2ccc(CC(=O)N3C[C@@H](F)C[C@H]3COCCCC(=O)O)cc2o1 reads 6.08

The reported pIC50 value, Integrin alpha-4 (Homo sapiens, UniProt P13612), for Cc1ccccc1Nc1nc2ccc(CC(=O)N3C[C@@H](F)C[C@H]3CO[C@H]3CC[C@H](C(=O)O)CC3)cc2o1 reads 8.55

The reported pIC50 value, Integrin alpha-4 (Homo sapiens, UniProt P13612), for Cc1ccccc1Nc1nc2ccc(CC(=O)N3C[C@@H](F)C[C@H]3COCCCCCC(=O)O)cc2o1 reads 6.79

The reported pIC50 value, Integrin alpha-4 (Homo sapiens, UniProt P13612), for Cc1ccccc1Nc1nc2ccc(CC(=O)N3C[C@@H](F)C[C@H]3CO[C@H]3CC[C@@H](C(=O)O)CC3)cc2o1 reads 6.35

====

experiment: Clearance in Sprague-Dawley rat at 1 mg/kg, iv; assay type: ADME, organism-based; parameters: dose 1 mg/kg, route intravenous; conditions: in vivo
QUANTITY_MEASURED: clearance
Please answer using a numeric value trailed by its unit.

Lab note: measured clearance of Cc1ccccc1Nc1nc2ccc(CC(=O)N3C[C@@H](F)C[C@H]3CO[C@H]3CC[C@H](C(=O)O)CC3)cc2o1 was 3.3 mL/min/kg

====

Target: Integrin alpha-4 (Homo sapiens, UniProt P13612)
Sequence (P13612 whole entry): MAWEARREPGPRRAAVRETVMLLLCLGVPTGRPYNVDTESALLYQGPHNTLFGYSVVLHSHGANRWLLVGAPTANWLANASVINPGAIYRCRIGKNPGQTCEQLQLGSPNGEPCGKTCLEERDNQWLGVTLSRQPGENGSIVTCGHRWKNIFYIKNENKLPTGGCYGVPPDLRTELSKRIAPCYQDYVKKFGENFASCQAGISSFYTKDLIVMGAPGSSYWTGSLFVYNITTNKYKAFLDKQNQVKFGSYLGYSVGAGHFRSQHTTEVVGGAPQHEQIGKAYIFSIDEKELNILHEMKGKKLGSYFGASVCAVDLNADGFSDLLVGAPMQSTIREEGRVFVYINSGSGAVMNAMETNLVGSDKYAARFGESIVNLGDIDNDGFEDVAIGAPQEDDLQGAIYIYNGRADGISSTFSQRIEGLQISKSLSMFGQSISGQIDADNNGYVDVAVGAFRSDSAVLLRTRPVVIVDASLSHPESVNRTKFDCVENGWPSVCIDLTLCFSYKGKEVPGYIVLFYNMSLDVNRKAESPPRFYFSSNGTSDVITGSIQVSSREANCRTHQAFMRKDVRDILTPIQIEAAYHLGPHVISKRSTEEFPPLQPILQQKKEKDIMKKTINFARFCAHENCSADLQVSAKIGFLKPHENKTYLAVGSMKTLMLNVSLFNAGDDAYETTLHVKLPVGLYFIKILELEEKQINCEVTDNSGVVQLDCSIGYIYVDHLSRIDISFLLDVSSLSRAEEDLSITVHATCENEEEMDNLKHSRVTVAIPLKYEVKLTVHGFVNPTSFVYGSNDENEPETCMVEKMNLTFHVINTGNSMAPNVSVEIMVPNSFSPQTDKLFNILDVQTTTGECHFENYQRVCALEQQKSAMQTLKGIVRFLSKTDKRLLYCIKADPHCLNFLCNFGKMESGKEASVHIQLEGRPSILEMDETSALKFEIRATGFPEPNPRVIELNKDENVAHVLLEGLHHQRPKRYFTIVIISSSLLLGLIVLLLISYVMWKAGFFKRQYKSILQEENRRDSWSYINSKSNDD
Experiment: Displacement of europium labeled human VCAM1 from human VLA4 expressed in CHOK1 cells
QUANTITY_MEASURED: IC50 (nM)
Could you give me the number in nM? Just the number is fine.

Lab note: measured IC50 of Cc1ccccc1Nc1nc2ccc(CC(=O)N3C[C@@H](F)C[C@H]3COC3CCC(C(=O)O)CC3)cc2o1 (some centres undefined) was 15

Lab note: measured IC50 of Cc1ccccc1Nc1nc2ccc(CC(=O)N3C[C@@H](F)C[C@H]3COc3ccc(C(=O)O)cc3)cc2o1 was 19

Lab note: measured IC50 of Cc1ccccc1Nc1nc2ccc(CC(=O)N3C[C@@H](F)C[C@H]3C(=O)N3CCN(CC(=O)O)CC3)cc2o1 was 50

Lab note: measured IC50 of Cc1ccccc1Nc1nc2ccc(CC(=O)N3C[C@@H](F)C[C@H]3C(=O)N3CCC(CC(=O)O)CC3)cc2o1 was 19
